B1: Insulin receptor substrate 1 (Homo sapiens), P35568 (parent)
chain: MASPPESDGFSDVRKVGYLRKPKSMHKRFFVLRAASEAGGPARLEYYENEKKWRHKSSAPKRSIPLESCFNINKRADSKNKHLVALYTRDEHFAIAADSEAEQDSWYQALLQLHNRAKGHHDGAAALGAGGGGGSCSGSSGLGEAGEDLSYGDVPPGPAFKEVWQVILKPKGLGQTKNLIGIYRLCLTSKTISFVKLNSEAAAVVLQLMNIRRCGHSENFFFIEVGRSAVTGPGEFWMQVDDSVVAQNMHETILEAMRAMSDEFRPRSKSQSSSNCSNPISVPLRRHHLNNPPPSQVGLTRRSRTESITATSPASMVGGKPGSFRVRASSDGEGTMSRPASVDGSPVSPSTNRTHAHRHRGSARLHPPLNHSRSIPMPASRCSPSATSPVSLSSSSTSGHGSTSDCLFPRRSSASVSGSPSDGGFISSDEYGSSPCDFRSSFRSVTPDSLGHTPPARGEEELSNYICMGGKGPSTLTAPNGHYILSRGGNGHRCTPGTGLGTSPALAGDEAASAADLDNRFRKRTHSAGTSPTITHQKTPSQSSVASIEEYTEMMPAYPPGGGSGGRLPGHRHSAFVPTRSYPEEGLEMHPLERRGGHHRPDSSTLHTDDGYMPMSPGVAPVPSGRKGSGDYMPMSPKSVSAPQQIINPIRRHPQRVDPNGYMMMSPSGGCSPDIGGGPSSSSSSSNAVPSGTSYGKLWTNGVGGHHSHVLPHPKPPVESSGGKLLPCTGDYMNMSPVGDSNTSSPSDCYYGPEDPQHKPVLSYYSLPRSFKHTQRPGEPEEGARHQHLRLSTSSGRLLYAATADDSSSSTSSDSLGGGYCGARLEPSLPHPHHQVLQPHLPRKVDTAAQTNSRLARPTRLSLGDPKASTLPRAREQQQQQQPLLHPPEPKSPGEYVNIEFGSDQSGYLSGPVAFHSSPSVRCPSQLQPAPREEETGTEEYMKMDLGPGRRAAWQESTGVEMGRLGPAPPGAASICRPTRAVPSSRGDYMTMQMSCPRQSYVDTSPAAPVSYADMRTGIAAEEVSLPRATMAAASSSSAASASPTGPQGAAELAAHSSLLGGPQGPGGMSAFTRVNLSPNRNQSAKVIRADPQGCRRRHSSETFSSTPSATRVGNTVPFGAGAAVGGGGGSSSSSEDVKRHSSASFENVWLRPGELGGAPKEPAKLCGAAGGLENGLNYIDLDLVKDFKQCPQECTPEPQPPPPPPPHQPLGSGESSSTRRSSEDLSAYASISFQKQPEDRQ

Variants of: B1
Conditions: with il4ra_human IL4R
readout: effect of a mutation on the interaction

var: M257A
readout: effect of a mutation on the interaction
value observed: decreasing interaction
//
var: R212Q
readout: effect of a mutation on the interaction
value observed: decreasing interaction
//
var: R227Q
readout: effect of a mutation on the interaction
value observed: decreasing interaction
